tested on: 786-0; test: NCI tumour cell line growth inhibition, 48 h
The source made the active and inactive calls. Rule as the data show it: active = GI50 up to about 1.1 µM and inactive = higher.
Write down one outcome, taken from active, inactive

Prompt line: Can you look up the reported call for Nc1ccc(C(=O)CC2(O)C(=O)Nc3c(Cl)cc(Cl)cc32)cc1 (stereo not given) for me?
Response line: inactive

Prompt line: Can you look up the reported call for NC(Cc1ccccc1)c1nccs1 (stereo not given) for me?
Response line: inactive

----------
tested on: OVCAR-5; assay: NCI tumour cell line growth inhibition, 48 h
Calls of active or inactive are those of the source. No stated cut-off is given here; in the data, active = GI50 up to about 1.1 µM and inactive = higher.
The entries below are paired with their reported GI50.

Consider the worked cases shown below.
N#C/C(=C\c1c(Cl)cccc1Cl)c1ccccc1	> 77.4 µM (inactive)
COc1ccc(-c2c(C(=O)Nc3ccccc3)c(-c3ccccc3)n(C3OC(CO)C(O)C(O)C3O)c(=S)c2C#N)cc1 (stereo not given)	> 100 µM (inactive)
O=[N+]([O-])c1cc(I)cc(/C=N/NS(=O)(=O)c2ccc(Cl)cc2)c1O	25 µM (inactive)
O=C(CSc1nccc(=O)[nH]1)c1ccccc1	> 100 µM (inactive)

Reported GI50 for COc1ccc2nc(NC(=O)C(=O)C(C#N)c3ccc([N+](=O)[O-])cc3)sc2c1 (stereo not given) was > 100 µM (inactive)

Reported GI50 for O=C(O)c1cc2ccccc2c(/N=N\c2cc(C(F)(F)F)ccc2Cl)c1O was > 100 µM (inactive)

Reported GI50 for CCOP(=O)(OCC)C1=C(c2ccccc2)OC(N)=C(C#N)C1c1ccc(Cl)cc1 (stereo not given) was > 100 µM (inactive)

----------
test system: RPMI-8226; assay: NCI tumour cell line growth inhibition, 48 h
Activity calls are given as the source filed them. Rule as the data show it: active = GI50 up to about 1.1 µM and inactive = higher.
Write down one outcome, taken from class 1 (active), class 0 (inactive)

Solved entries (count: 5):
O=C(O)c1ccccc1/C=C1\Cc2ccc3c(c2C1=O)CCCC3	class 0
COc1cccc(NC(=O)CSc2nnc(-c3ccc(/N=C\c4ccc(Cl)cc4)cc3)o2)c1	class 0
Cc1ccc(C(=O)Nc2ccc(CP(=O)(O)O)cc2CP(=O)(O)O)cc1N	class 0
CCOC1OCCCC1Br (configuration not stated)	class 0
C=CS(=O)(=O)CCN1CC1	class 0

Prompt line: Can you look up the reported call for COc1cc2c(c(OC)c1OC)[C@@H]1CCCCC[C@@H]1CCC2=O for me?
Response line: class 0

Prompt line: Can you look up the reported call for CCOc1ncn(-c2ccc(NC(=S)NC3OC(CO)C(O)C(O)C3O)cc2)n1 (configuration not stated) for me?
Response line: class 0

Prompt line: Can you look up the reported call for COc1ccc2nc(NC(=O)C(=O)C(C#N)c3ccc([N+](=O)[O-])cc3)sc2c1 (configuration not stated) for me?
Response line: class 0

Prompt line: Can you look up the reported call for CCOC(=O)C(=O)Nc1cccc(C)c1C for me?
Response line: class 0

Prompt line: Can you look up the reported call for Cc1ncc([N+](=O)[O-])n1CCN(C)C(=O)CCCn1ccnc1[N+](=O)[O-] for me?
Response line: class 0

Prompt line: Can you look up the reported call for O=C1C(=O)N(C2C3CC4CC(C3)CC2C4)C(=O)C(=O)C1c1nc2ccccc2o1 (configuration not stated) for me?
Response line: class 0

Prompt line: Can you look up the reported call for C=C1C(=O)O[C@@H]2[C@H]3O[C@]3(C)CCC=C(C)CC[C@@H]12 for me?
Response line: class 0

Prompt line: Can you look up the reported call for O=C1CCCC2=C1C(c1ccc3c(c1)OCO3)Nc1ccc3ccccc3c12 (configuration not stated) for me?
Response line: class 0

Prompt line: Can you look up the reported call for Nc1nc(Nc2ccc(Cl)cc2)sc1C(=O)c1cc2ccccc2oc1=O for me?
Response line: class 0

Prompt line: Can you look up the reported call for COc1cccc([C@H]2C/C(=N\NC(=O)C(=O)N[C@@H](C)c3ccccc3)c3ccccc3N2)c1 for me?
Response line: class 1

Prompt line: Can you look up the reported call for NCCN(CCN(C(=O)Nc1ccccc1)c1ccccc1)C(=O)Nc1ccccc1 for me?
Response line: class 0

Prompt line: Can you look up the reported call for O=S(=O)(O)c1ccc(/N=N/c2ccc3c(S(=O)(=O)O)cccc3c2O)c2ccccc12 for me?
Response line: class 0
